Counter-ions that a name gives are not always drawn.

compound: Clc1cc(NC2=NCCN2)c(Br)c2[nH]cnc12 (as salt: fumarate)
melting point: 244 to 246 °C
--
compound: CCc1nc2ccc(NC3=NCCN3)c(Br)c2[nH]1 (as salt: fumarate)
melting point: 186 to 187 °C
--
compound: c1cc2c(cc1NC1=NCCN1)ncn2CC1CCCCC1 (as salt: fumarate)
melting point: 222 to 223 °C
--
compound: c1cc2ncn(C3CCCC3)c2cc1NC1=NCCN1 (as salt: fumarate)
melting point: 158 to 159 °C

====

- test target: α2C Human Adrenergic Receptor (Homo sapiens)
- Sequence (P18825 whole entry): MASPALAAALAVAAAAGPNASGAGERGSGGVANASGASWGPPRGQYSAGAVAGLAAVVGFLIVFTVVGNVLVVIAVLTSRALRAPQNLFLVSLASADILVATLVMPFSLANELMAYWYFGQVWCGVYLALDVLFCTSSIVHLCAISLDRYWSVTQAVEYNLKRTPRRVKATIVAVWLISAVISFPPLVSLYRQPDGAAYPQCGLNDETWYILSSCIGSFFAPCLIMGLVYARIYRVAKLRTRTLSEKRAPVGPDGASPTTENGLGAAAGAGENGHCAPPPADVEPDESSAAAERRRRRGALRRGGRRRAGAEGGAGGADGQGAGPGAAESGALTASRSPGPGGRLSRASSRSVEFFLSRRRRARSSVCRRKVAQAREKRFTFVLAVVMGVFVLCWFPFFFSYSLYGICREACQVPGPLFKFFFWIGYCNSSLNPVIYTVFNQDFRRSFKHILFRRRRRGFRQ
- Format: cell-based
- Set-up: The entire coding region of α2C (1383 bp), including 2 bp of 5′ UT and 400 bp of 3′ UT; expressed in transfected cells; host or cells: LM(tk-) cells
- assay context: functional cAMP assay
- Protocol: Binding and functional assays were performed using stably transfected human alpha adrenergic receptors. […] The agonist activity (expressed as pEC50) was measured as a function of the ability to inhibit the forskolin-stimulated synthesis of cyclic adenosine monophosphate (cAMP). […] The assessment of cAMP formation is determined by radioimmunoassay (cAMP radioimmunoassay kit; Advanced Magnetics, Cambridge, Mass.). […]
Reported I.A Alpha-2 C values follow for various compounds

compound: Brc1cc(NC2=NCCN2)c(Br)c2[nH]cnc12 [Example 58]
I.A Alpha-2 C: 1.00
//
compound: CCc1c(NC2=NCCN2)ccc2nc[nH]c12 [Example 6]
I.A Alpha-2 C: 1.00
//
compound: FC(F)(F)c1nc2ccc(NC3=NCCN3)c(Br)c2[nH]1 [Example 46]
I.A Alpha-2 C: 0.90
//
compound: COc1cccc(Cn2cnc3c(Br)c(NC4=NCCN4)ccc32)c1 [Example 37]
I.A Alpha-2 C: 0.50
//
compound: Ic1c(NC2=NCCN2)ccc2nc[nH]c12 [Example 5]
I.A Alpha-2 C: 1.00
//
compound: CCc1nc2ccc(NC3=NCCN3)c(Br)c2[nH]1 [Example 43]
I.A Alpha-2 C: 0.90
//
compound: Cn1cnc2c(Br)c(NC3=NCCN3)ccc21 [Example 10]
I.A Alpha-2 C: 1.00
//
compound: Brc1cc2nc[nH]c2c(Br)c1NC1=NCCN1 [Example 50]
I.A Alpha-2 C: 1.00
//
compound: CCCCc1c(NC2=NCCN2)ccc2nc[nH]c12 [Example 8]
I.A Alpha-2 C: 1.00
//
compound: Cc1cc2nc[nH]c2cc1NC1=NCCN1 [Example 49]
I.A Alpha-2 C: 1.00
//
compound: Clc1cc(NC2=NCCN2)cc2[nH]cnc12 [Example 53]
I.A Alpha-2 C: 1.00

====

Counter-ions that a name gives are not always drawn.
compounds and their reported melting point

compound: CCc1c(NC2=NCCN2)ccc2nc[nH]c12 (as salt: fumarate)
melting point: 238 to 239 °C
//
compound: c1cc2c(cc1NC1=NCCN1)ncn2C1CCCC1 (as salt: fumarate)
melting point: 214 to 215 °C
//
compound: c1ccc(Cn2cnc3cc(NC4=NCCN4)ccc32)cc1 (as salt: fumarate)
melting point: 174 to 175 °C
//
compound: c1ccc(-c2cc(NC3=NCCN3)cc3[nH]cnc23)cc1 (as salt: fumarate)
melting point: 149 to 151 °C
